Data origin: the SangsterLogP compilation

Assay name: method code SF-ESR, from DOI: 10.3109/10715769009149900, PMID: 2175281
Experimental conditions: pH 12.0
Readout: logD
Just the number, please, no unit attached.

Output logD of CC1(C)CC(CN)C(C)(C)N1O (configuration not stated)
0.36

Output logD of CC1(C)C=C(CN2CCCCC2)C(C)(C)N1O
1.88

Output logD of CC1(C)C=C(CN2CCCCC2)CC(C)(C)N1O
1.58

Output logD of CN(C)CCN(C)CC1=CC(C)(C)N(O)C1(C)C
0.91

Output logD of CN(C)CC1=CC(C)(C)N(O)C1(C)C
0.7

Output logD of CC1(C)CC(N)C(C)(C)N1O (configuration not stated)
1.03

Output logD of CC1(C)C=C(CN2CCOCC2)CC(C)(C)N1O
1.14

----------
Assay name: method code SF-ESR, from DOI: 10.3109/10715769009149900, PMID: 2175281
Experimental conditions: pH 2.5
Please go through the items and note down their logD.
Just the number, please, no unit attached.

Output logD of CC1(C)[C@H](C(=O)O)[C@H](C(=O)O)C(C)(C)N1O
0.46

Output logD of CC1(C)C=C(C(=O)O)C(C)(C)N1O
1.11
